tested on: DeltatarO mutant; experiment: S. aureus survival, RN4220 and DeltatarO strains – OD600, teichoic acid synthesis inhibitors, primary screen (AID 463173); conditions: S. aureus RN4220 wild type/DeltatarO growth, OD600, 18 h, active compounds read low, screened at 18.75 µg/mL (by protocol)
The whole screen tested about 52,000 compounds, of which about 4,300 (8.3%) were called active. The full list was thinned out, with actives kept by preference.
Note to self: survival under 80% means label 1, ties and anything higher get label 0.

| COMPOUND | DISCRETE LABEL |
| --- | --- |
| Cc1nn2c(=O)cc(COC(=O)c3ccccc3NC(=O)c3cccs3)nc2s1 | label 1 |
| CCCSc1ncnc2c1c(-c1ccccc1)cn2-c1ccccc1OC | label 1 |
| CC1CC(C)CN(C(=O)Cn2cnc3c2c(=O)n(C)c(=O)n3C)C1 (stereo unspecified) | label 0 |
| CCOc1ccc(CCNC(=O)c2cc3n(n2)CCCN(Cc2ccc(C)cc2)C3=O)cc1OCC | label 0 |
| CCOc1ccc2nc(Cl)c(C3CC(c4ccc(OC)cc4)=NN3S(C)(=O)=O)cc2c1 (stereo unspecified) | label 0 |

Qu. Hello, is survival of the following compound strictly smaller than 80%? Cc1c(C(=O)N(Cc2ccc(N(C)C)cc2)C2CCS(=O)(=O)C2)oc2ccccc12 (stereo unspecified)
Ans. label 1

Qu. Field entry: COc1ccc(OC)c(NC(=O)c2cc3cccc(OC)c3oc2=O)c1
Ans. label 1

Qu. Field entry: COc1cccc(CN(C(=O)c2oc3ccc(Br)cc3c2C)C2CCS(=O)(=O)C2)c1 (stereo unspecified)
Ans. label 1

Qu. Field entry: O=C(CSc1ncc2c(n1)-c1ccccc1N(Cc1ccccc1)S2(=O)=O)Nc1ccccc1
Ans. label 1

Qu. Field entry: CN(Cc1ccc(F)cc1)S(=O)(=O)c1nnc(NC(=O)c2ccccc2)s1
Ans. label 0

Qu. Field entry: Cc1ccc(C(=O)CSc2nnnn2C2CCCC2)cc1C
Ans. label 1

Qu. Field entry: COCCCNC(=O)C1CCN(Cc2nc(-c3ccc(OC)c(OC)c3)oc2C)CC1
Ans. label 0

Qu. Field entry: Cc1ccccc1CN1c2ccccc2-c2nc(SCC(=O)NCCc3ccccc3)ncc2S1(=O)=O
Ans. label 1
